Kindly supply the reported Mass of final product obtained from 1 ml mRNA synthesis reaction system values for the records listed here.
Target: UniProtKB P00573
Sequence (P00573 whole entry): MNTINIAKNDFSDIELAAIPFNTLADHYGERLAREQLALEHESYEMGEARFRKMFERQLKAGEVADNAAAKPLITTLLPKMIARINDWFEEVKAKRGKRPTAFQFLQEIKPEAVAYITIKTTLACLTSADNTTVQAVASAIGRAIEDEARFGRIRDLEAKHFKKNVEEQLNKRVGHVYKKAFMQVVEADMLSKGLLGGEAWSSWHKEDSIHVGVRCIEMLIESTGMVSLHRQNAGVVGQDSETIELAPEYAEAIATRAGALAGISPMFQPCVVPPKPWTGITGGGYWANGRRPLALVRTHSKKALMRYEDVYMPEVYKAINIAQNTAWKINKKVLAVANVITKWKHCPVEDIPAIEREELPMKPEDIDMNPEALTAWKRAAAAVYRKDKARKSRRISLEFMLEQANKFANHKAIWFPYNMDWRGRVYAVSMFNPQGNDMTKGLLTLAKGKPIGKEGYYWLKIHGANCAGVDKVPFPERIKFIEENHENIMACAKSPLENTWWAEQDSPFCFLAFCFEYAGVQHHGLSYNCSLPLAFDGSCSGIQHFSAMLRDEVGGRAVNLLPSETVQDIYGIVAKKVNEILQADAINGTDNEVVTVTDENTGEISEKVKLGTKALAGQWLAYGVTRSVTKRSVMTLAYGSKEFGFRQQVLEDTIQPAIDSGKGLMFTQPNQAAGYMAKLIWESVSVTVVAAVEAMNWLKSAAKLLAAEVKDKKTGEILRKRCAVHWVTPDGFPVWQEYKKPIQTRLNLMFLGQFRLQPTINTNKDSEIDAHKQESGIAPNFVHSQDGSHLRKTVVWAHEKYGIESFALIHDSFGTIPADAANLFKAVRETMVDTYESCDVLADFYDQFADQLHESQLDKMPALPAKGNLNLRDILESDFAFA
Test: In vitro transcription mRNA synthesis with cap analog, reaction yield
Format: biochemical
Settings: per ml transcription reaction system; 37° C. for 6 h; LiCl purification
Answer in mg, number only, no unit symbol.

Mass of final product obtained from 1 ml mRNA synthesis reaction system for `CO[C@@H]1[C@H](O)[C@@H](COP(=O)(O)O[C@H]2[C@@H](OC)[C@H](n3ccc(=O)[nH]c3=O)O[C@@H]2COP(=O)(O)OP(=O)(O)OP(=O)([O-])OC[C@H]2O[C@@H](n3c[n+](C)c4c(=O)[nH]c(N)nc43)[C@H](O)[C@@H]2OC)O[C@H]1n1ccc(N)nc1=O` ? 4.8

Fill blank: measured Mass of final product obtained from 1 ml mRNA synthesis reaction system of the molecule `CO[C@@H]1[C@H](O)[C@@H](COP(=O)(O)O[C@H]2[C@@H](OC)[C@H](n3cnc4c(=O)[nH]c(N)nc43)O[C@@H]2COP(=O)(O)OP(=O)(O)OP(=O)([O-])OC[C@H]2O[C@@H](n3c[n+](C)c4c(=O)[nH]c(N)nc43)[C@H](O)[C@@H]2OC)O[C@H]1n1cnc2c(=O)[nH]c(N)nc21` is ____. 4.1

What does the record list as Mass of final product obtained from 1 ml mRNA synthesis reaction system for `CO[C@@H]1[C@H](O)[C@@H](COP(=O)(O)O[C@H]2[C@@H](OC)[C@H](n3cnc4c(N)ncnc43)O[C@@H]2COP(=O)(O)OP(=O)(O)OP(=O)([O-])OC[C@H]2O[C@@H](n3c[n+](C)c4c(=O)[nH]c(N)nc43)[C@H](O)[C@@H]2O)O[C@H]1n1ccc(N)nc1=O` ? 4.8

// lookup Mass of final product obtained from 1 ml mRNA synthesis reaction system for `CO[C@@H]1[C@H](O)[C@@H](COP(=O)(O)O[C@H]2[C@@H](OC)[C@H](n3cnc4c(N)ncnc43)O[C@@H]2COP(=O)(O)OP(=O)(O)OP(=O)([O-])OC[C@H]2O[C@@H](n3c[n+](C)c4c(=O)[nH]c(N)nc43)[C@H](O)[C@@H]2OC)O[C@H]1n1ccc(N)nc1=O` 4.1

GET /values?readout=Mass of final product obtained from 1 ml mRNA synthesis reaction system&item= `CO[C@@H]1[C@H](OP(=O)(O)OC[C@H]2O[C@@H](n3cnc4c(=O)[nH]c(N)nc43)[C@H](OC)[C@@H]2O)[C@@H](COP(=O)(O)OP(=O)(O)OP(=O)([O-])OC[C@H]2O[C@@H](n3c[n+](C)c4c(=O)[nH]c(N)nc43)[C@H](O)[C@@H]2O)O[C@H]1n1ccc(=O)[nH]c1=O` 4.7

Given the molecule `CO[C@@H]1[C@H](O)[C@@H](COP(=O)(O)O[C@H]2[C@@H](OC)[C@H](n3cnc4c(=O)[nH]c(N)nc43)O[C@@H]2COP(=O)(O)OP(=O)(O)OP(=O)([O-])OC[C@H]2O[C@@H](n3c[n+](C)c4c(=O)[nH]c(N)nc43)[C@H](O)[C@@H]2O)O[C@H]1n1cnc2c(=O)[nH]c(N)nc21` , what is its reported Mass of final product obtained from 1 ml mRNA synthesis reaction system? 4.9

====

System: mRNA
Experiment: mRNA capping rate by RNase H cleavage and LC-MS
Assay type: biochemical
Conditions: ratio of capped and uncapped mRNA
Please respond with reported mRNA capping rates when using different Cap structures for every item in the list.
Numbers only; they are read as %.

Item under review: `CO[C@@H]1[C@H](O)[C@@H](COP(=O)(O)O[C@H]2[C@@H](OC)[C@H](n3cnc4c(N)ncnc43)O[C@@H]2COP(=O)(O)OP(=O)(O)OP(=O)([O-])OC[C@H]2O[C@@H](n3c[n+](C)c4c(=O)[nH]c(N)nc43)[C@H](O)[C@@H]2OC)O[C@H]1n1ccc(N)nc1=O` . Reported mRNA capping rates when using different Cap structures? 94.8

Any idea what mRNA capping rates when using different Cap structures was measured for `CO[C@@H]1[C@H](O)[C@@H](COP(=O)(O)O[C@H]2[C@@H](OC)[C@H](n3ccc(=O)[nH]c3=O)O[C@@H]2COP(=O)(O)OP(=O)(O)OP(=O)([O-])OC[C@H]2O[C@@H](n3c[n+](C)c4c(=O)[nH]c(N)nc43)[C@H](O)[C@@H]2OC)O[C@H]1n1ccc(=O)[nH]c1=O` ? 94.66

Find the recorded mRNA capping rates when using different Cap structures belonging to `CO[C@@H]1[C@H](OP(=O)(O)OC[C@H]2O[C@@H](n3cnc4c(=O)[nH]c(N)nc43)[C@H](OC)[C@@H]2O)[C@@H](COP(=O)(O)OP(=O)(O)OP(=O)([O-])OC[C@H]2O[C@@H](n3c[n+](C)c4c(=O)[nH]c(N)nc43)[C@H](O)[C@@H]2O)O[C@H]1n1ccc(N)nc1=O` and report it. 94.82

Looking for the measured mRNA capping rates when using different Cap structures of `CO[C@@H]1[C@H](O)[C@@H](COP(=O)(O)O[C@H]2[C@@H](OC)[C@H](n3ccc(N)nc3=O)O[C@@H]2COP(=O)(O)OP(=O)(O)OP(=O)([O-])OC[C@H]2O[C@@H](n3c[n+](C)c4c(=O)[nH]c(N)nc43)[C@H](O)[C@@H]2OC)O[C@H]1n1ccc(=O)[nH]c1=O` , can you help? 94.7

Which mRNA capping rates when using different Cap structures value is on record for `CO[C@@H]1[C@H](O)[C@@H](COP(=O)(O)O[C@H]2[C@@H](OC)[C@H](n3cnc4c(N)ncnc43)O[C@@H]2COP(=O)(O)OP(=O)(O)OP(=O)([O-])OC[C@H]2O[C@@H](n3c[n+](C)c4c(=O)[nH]c(N)nc43)[C@H](O)[C@@H]2O)O[C@H]1n1cnc2c(=O)[nH]c(N)nc21` ? 94.91

Which measured mRNA capping rates when using different Cap structures value corresponds to `CO[C@@H]1[C@H](OP(=O)(O)OC[C@H]2O[C@@H](n3cnc4c(=O)[nH]c(N)nc43)[C@H](OC)[C@@H]2O)[C@@H](COP(=O)(O)OP(=O)(O)OP(=O)([O-])OC[C@H]2O[C@@H](n3c[n+](C)c4c(=O)[nH]c(N)nc43)[C@H](O)[C@@H]2OC)O[C@H]1n1ccc(=O)[nH]c1=O` ? 94.42

====

Tested on: mRNA
Test: mRNA capping rate by RNase H cleavage and LC-MS
Format: biochemical
Settings: ratio of capped and uncapped mRNA
Protocol: The mRNA molecules with different Cap structures obtained in Example 1 were subjected to enzymatic cleavage, and the ratio of capped and uncapped mRNA molecules could be determined in a liquid chromatography-mass spectrometry analysis experiment. 1. Concentrate the beads using a magnet, aspirate the supernatant storage solution, and add an equal volume of 0.1 M NaOH +0.05 M NaCl; 2. […] 9. the mRNA capping rate of different Cap analogs synthesized was analyzed with LC-MS.
Assign mRNA capping rates when using different Cap structures to each entry below.
State just the number; it will be interpreted in %.

Find the recorded mRNA capping rates when using different Cap structures belonging to `CO[C@@H]1[C@H](O)[C@@H](COP(=O)(O)O[C@H]2[C@@H](OC)[C@H](n3cnc4c(=O)[nH]c(N)nc43)O[C@@H]2COP(=O)(O)OP(=O)(O)OP(=O)([O-])OC[C@H]2O[C@@H](n3c[n+](C)c4c(=O)[nH]c(N)nc43)[C@H](O)[C@@H]2OC)O[C@H]1n1cnc2c(=O)[nH]c(N)nc21` and report it. 94.98

For the compound shown here, `CO[C@@H]1[C@H](O)[C@@H](COP(=O)(O)O[C@H]2[C@@H](OC)[C@H](n3ccc(=O)[nH]c3=O)O[C@@H]2COP(=O)(O)OP(=O)(O)OP(=O)([O-])OC[C@H]2O[C@@H](n3c[n+](C)c4c(=O)[nH]c(N)nc43)[C@H](O)[C@@H]2OC)O[C@H]1n1ccc(N)nc1=O` , give the reported mRNA capping rates when using different Cap structures. 94.62

Please look up its mRNA capping rates when using different Cap structures: `CO[C@@H]1[C@H](O)[C@@H](COP(=O)(O)O[C@H]2[C@@H](OC)[C@H](n3ccc(N)nc3=O)O[C@@H]2COP(=O)(O)OP(=O)(O)OP(=O)([O-])OC[C@H]2O[C@@H](n3c[n+](C)c4c(=O)[nH]c(N)nc43)[C@H](O)[C@@H]2O)O[C@H]1n1ccc(=O)[nH]c1=O` 94.83

# input compound: `CO[C@@H]1[C@H](OP(=O)(O)OC[C@H]2O[C@@H](n3cnc4c(N)ncnc43)[C@H](OC)[C@@H]2O)[C@@H](COP(=O)(O)OP(=O)(O)OP(=O)([O-])OC[C@H]2O[C@@H](n3c[n+](C)c4c(=O)[nH]c(N)nc43)[C@H](O)[C@@H]2OC)O[C@H]1n1ccc(N)nc1=O` ; wanted: its mRNA capping rates when using different Cap structures 94.65

Quick one: mRNA capping rates when using different Cap structures for `CO[C@@H]1[C@H](O)[C@@H](COP(=O)(O)O[C@H]2[C@@H](OC)[C@H](n3cnc4c(N)ncnc43)O[C@@H]2COP(=O)(O)OP(=O)(O)OP(=O)([O-])OC[C@H]2O[C@@H](n3c[n+](C)c4c(=O)[nH]c(N)nc43)[C@H](O)[C@@H]2O)O[C@H]1n1cnc2c(N)ncnc21` ? 94.88

What does the data say about its mRNA capping rates when using different Cap structures? Entry: `CO[C@@H]1[C@H](OP(=O)(O)OC[C@H]2O[C@@H](n3cnc4c(N)ncnc43)[C@H](OC)[C@@H]2O)[C@@H](COP(=O)(O)OP(=O)(O)OP(=O)([O-])OC[C@H]2O[C@@H](n3c[n+](C)c4c(=O)[nH]c(N)nc43)[C@H](O)[C@@H]2OC)O[C@H]1n1ccc(=O)[nH]c1=O` 94.72
